Source listed as ChEMBL document CHEMBL1131420.

# study-target: Sodium-dependent dopamine transporter (Rattus norvegicus, UniProt P23977)
# Sequence (P23977 whole entry): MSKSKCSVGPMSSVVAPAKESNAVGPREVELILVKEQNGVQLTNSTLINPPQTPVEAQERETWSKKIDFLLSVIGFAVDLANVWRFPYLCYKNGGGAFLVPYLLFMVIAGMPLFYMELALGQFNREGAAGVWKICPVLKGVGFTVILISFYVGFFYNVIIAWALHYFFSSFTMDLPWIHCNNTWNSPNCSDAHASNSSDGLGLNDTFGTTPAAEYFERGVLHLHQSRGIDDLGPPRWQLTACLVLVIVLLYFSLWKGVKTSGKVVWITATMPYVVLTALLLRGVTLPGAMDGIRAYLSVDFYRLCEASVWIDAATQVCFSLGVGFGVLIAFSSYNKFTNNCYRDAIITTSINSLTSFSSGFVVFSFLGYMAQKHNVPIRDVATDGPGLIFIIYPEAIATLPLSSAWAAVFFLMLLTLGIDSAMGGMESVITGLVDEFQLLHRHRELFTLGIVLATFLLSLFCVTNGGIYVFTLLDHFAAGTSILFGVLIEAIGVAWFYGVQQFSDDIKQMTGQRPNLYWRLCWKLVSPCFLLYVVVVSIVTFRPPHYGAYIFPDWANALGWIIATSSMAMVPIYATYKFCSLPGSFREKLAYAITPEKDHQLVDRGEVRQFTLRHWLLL
# assay-name: Inhibitory activity on dopamine transporters of rat striated membranes using [3H]- mazindol.
API: label(entry) gives fulfilled if the entry's IC50 is strictly smaller than 20 nM; on equality or larger values it gives not fulfilled.

# compound, label
rows = [
    ("CCC[C@H]1C2CC[C@H](C[C@H]1c1ccc(F)cc1)N2C", "not fulfilled"),
    ("CCC[C@H]1C2CC[C@H](C[C@H]1c1ccccc1)N2C", "not fulfilled"),
    ("Cc1ccc([C@@H]2C[C@H]3CCC([C@@H]2c2ccccc2)N3C)cc1", "fulfilled"),
    ("CN1C2CC[C@@H]1C[C@@H](c1ccccc1)[C@H]2c1ccccc1", "not fulfilled"),
    ("COC(=O)[C@H]1C(c2ccccc2)C[C@H]2CCC1N2C (some centres undefined)", "not fulfilled"),
    ("CCCC[C@H]1C(c2ccc(C)cc2)C[C@H]2CCC1N2C (some centres undefined)", "fulfilled"),
    ("CN1C2CC[C@@H]1C[C@@H](c1ccc(F)cc1)[C@H]2c1ccccc1", "fulfilled"),
    ("CCC[C@H]1C(c2ccc(F)cc2)C[C@H]2CCC1N2C (some centres undefined)", "fulfilled"),
    ("CN1C2CC[C@@H]1CC(c1ccccc1)[C@@H]2c1ccccc1 (some centres undefined)", "not fulfilled"),
    ("CCC[C@H]1C(c2ccc(C)cc2)C[C@H]2CCC1N2C (some centres undefined)", "fulfilled"),
    ("CCC[C@H]1C2CC[C@H](C[C@H]1c1ccc(C)cc1)N2C", "fulfilled"),
    ("Cc1ccc(C2C[C@H]3CCC([C@H]2c2ccccc2)N3C)cc1 (some centres undefined)", "fulfilled"),
    ("CCCC[C@H]1C2CC[C@H](C[C@H]1c1ccc(C)cc1)N2C", "not fulfilled"),
    ("CCC[C@H]1C(c2ccccc2)C[C@H]2CCC1N2C (some centres undefined)", "not fulfilled"),
]
